Assay: melting temperature; fluorescence melt of hairpins on a sequencing array, two-state fit, raised by 9.35 °C to match UV melts
Conditions: sodium 0.088 M
Listed below: Tm values for each entry.

Before answering, review these 3 worked examples.
GTCGCTGCGAAAGCAGAC (((..(((....)))))); 38.5 °C
GAAATCCCGAAAGGGTTC (((..(((....)))))); 26.2 °C
GCGAGTAGTCGC ((((....)))); 54.3 °C

// recorded Tm for GAGACTGGAAACAGTCTC (((((((....))))))) : 64.8 °C

// recorded Tm for GATGGGCGAAAGCCGATC (((.(((....))).))) : 52.7 °C

// recorded Tm for CGACCGGAAACGGTTCG ((((((....))).))) : 49.2 °C

// recorded Tm for GCGCATGGAAACATGCAC (.(((((....))))).) : 47.1 °C

// recorded Tm for CGATCGGAAACGAAATCG ((((((....)))..))) : 33.9 °C

// recorded Tm for GACGGCGAAAGCCCCGTC ((((((....)))..))) : 42.8 °C

// recorded Tm for GTGCCCGAAAGGGGGCAC ((((((....)))..))) : 69.1 °C

// recorded Tm for GTTGTATCGAAAGATAAC (((..(((....)))))) : 37.1 °C

// recorded Tm for GTGGCAGGAAACTGTCAC (((.(((....))).))) : 54.3 °C

###

Listed below: folding enthalpy values for each entry.
Assay: folding enthalpy; higher = less favourable; fluorescence melt of hairpins on a sequencing array, two-state fit
Conditions: sodium 0.088 M
Give the number; kcal/mol is assumed, so skip it.

// recorded folding enthalpy for CGGAAACGGAAACGTCCG (((..(((....)))))) : -22.9

// recorded folding enthalpy for GCTCCGCGAAAGCGGCGC ((.((((....)))).)) : -18.6

// recorded folding enthalpy for GCTAAACGAAAGTTAAGC (((.(((....))).))) : -29.1

// recorded folding enthalpy for GAATTCCCGAAAGGGTTC (((..(((....)))))) : -13

// recorded folding enthalpy for GATCTCTTCCGAGATC ((((((....)))))) : -37

// recorded folding enthalpy for GGGAAGCGAAAGCTACCC (((.(((....))).))) : -30.7

###

Assay: folding enthalpy; higher = less favourable; fluorescence melt of hairpins on a sequencing array, two-state fit
Conditions: sodium 0.088 M
Listed below: folding enthalpy values for each entry.
Give the number; kcal/mol is assumed, so skip it.

Before answering, review these 3 worked examples.
GGTCATGGAAACATAACC (((.(((....))).))); -18.5
GCGAGGGCGAAAGCCCGC (((..(((....)))))); -8.66
GTGAACGGAAACGTTTAC ((.((((....)))).)); -29.6

// recorded folding enthalpy for GATTGTGAAAACAATC ((((((....)))))) : -35.9

// recorded folding enthalpy for GTGTGAGGAAACTCATGC (..((((....))))..) : -23.5

// recorded folding enthalpy for GATCTATAAGTAGATC ((((((....)))))) : -35.6

// recorded folding enthalpy for GGTCCCGAAAGGGGGACC ((((((....)))..))) : -25.4

// recorded folding enthalpy for GCCTCTGAAAAGAGGC ((((((....)))))) : -37.8

// recorded folding enthalpy for GAAGCTGGAAACAGCCTC ((.((((....)))).)) : -13.8

// recorded folding enthalpy for GATCTGGGTCCAGATC ((((((....)))))) : -42.5

// recorded folding enthalpy for GTCCTCGAAAGAGCCGAC ((((((....)))..))) : -12.4

// recorded folding enthalpy for GTTGAAGGAAACTTTAAC (((.(((....))).))) : -17.7

// recorded folding enthalpy for GTATCTGGAAACAGATGC (.(((((....))))).) : -21.2

// recorded folding enthalpy for GGGCTTGGAAACAGGCTC (.((.((....)).)).) : -24.4

// recorded folding enthalpy for GATAGGCGAAAGCCAATC (((.(((....))).))) : -19

// recorded folding enthalpy for GTGGGGTCGAAAGACCAC (((..(((....)))))) : -19.2

// recorded folding enthalpy for GGTAGGCCGAAAGGCACC (((..(((....)))))) : -12

// recorded folding enthalpy for GATCTGACGGCAGATC ((((((....)))))) : -49.4

// recorded folding enthalpy for AGTGAGAAATCACT (((((....))))) : -15.7

// recorded folding enthalpy for GAACGCCCGAAAGGGTTC (((..(((....)))))) : -10.8

// recorded folding enthalpy for GTTCGAGAAATCGAAC ((((((....)))))) : -39.8

// recorded folding enthalpy for GCCCACGAAAGTGCTGGC ((((((....)))..))) : -18.9

// recorded folding enthalpy for CGATTTCGGAAACGATCG (((..(((....)))))) : -9.46

// recorded folding enthalpy for GGGCAGGGAAACTTGCCC (((((.(....).))))) : -47.7

// recorded folding enthalpy for GTTAGCCGAAAGGCGAAC (((.(((....))).))) : -20.5

###

Assay: folding enthalpy; higher = less favourable; fluorescence melt of hairpins on a sequencing array, two-state fit
Conditions: sodium 0.088 M
readout.label: folding enthalpy (kcal/mol)
Give the number; kcal/mol is assumed, so skip it.

Before answering, review these 3 worked examples.
GAGGTTCCGAAAGGACTC (((..(((....)))))); -14.9
GTTGCCGAAAGGCGCAAC ((((((....)))..))); -8.82
GATCACACCAGTGATC ((((((....)))))); -38.6

// recorded folding enthalpy for GAAAGCGAAAGCTTTTTC ((((((....)))..))) : -14.2

###

Listed below: folding enthalpy values for each entry.
Test: folding enthalpy; higher = less favourable; fluorescence melt of hairpins on a sequencing array, two-state fit
Conditions: sodium 0.088 M
Give the number; kcal/mol is assumed, so skip it.

Before answering, review these 5 worked examples.
GATTCGGGAAACCGAACC (.(((((....))))).); -13.7
GCTCGCGAAAGCGGAAGC ((((((....)))..))); -16.3
GATCCATGGTTGGATC ((((((....)))))); -42.8
GTTCGCCGAAAGGCAAC (((.(((....)))))); -12.5
GGGCCCGAAAGGGTACCC ((((((....)))..))); -15.1

// recorded folding enthalpy for GGTGGTGCGAAAGCAACC (((..(((....)))))) : -15.4

// recorded folding enthalpy for GCTGAGCCGAAAGGCAGC (((..(((....)))))) : -15.2

// recorded folding enthalpy for GATCCACTTGTGGATC ((((((....)))))) : -37.5

// recorded folding enthalpy for GCGATGCGAAAGCGTGGC ((.(.((....)).).)) : -21.6

// recorded folding enthalpy for GAACTCGGAAACGAGTCC (.(((((....))))).) : -14.6

// recorded folding enthalpy for GCGTTCGAAAGAATTCGC ((((((....)))..))) : -26.6

// recorded folding enthalpy for GATCGTCTGAACGATC ((((((....)))))) : -39.6

###

Assay: melting temperature; fluorescence melt of hairpins on a sequencing array, two-state fit, raised by 9.35 °C to match UV melts
Details: sodium 0.088 M
readout.label: Tm

Before answering, review these 5 worked examples.
GCGAGGCGAAAGCCATGC ((..(((....)))..)); 58.1 °C
GATCGGTAATCCGATC ((((((....)))))); 57.3 °C
GGTCGGGGAAACTCGACC (((((.(....).))))); 58 °C
GCATGAGGAAACTCGTGC (((.(((....))).))); 52.9 °C
CGCACGGAAACGTGGGCG ((((((....)))..))); 56.3 °C

// recorded Tm for GGAGTCCCGAAAGGGTCC (((..(((....)))))) : 34 °C

// recorded Tm for GTCCACGAAAGTGATGAC ((((((....)))..))) : 39.4 °C

// recorded Tm for GATCCGGTTACGGATC ((((((....)))))) : 68.5 °C

###

Assay: folding enthalpy; higher = less favourable; fluorescence melt of hairpins on a sequencing array, two-state fit
Details: sodium 0.088 M
Short version: folding enthalpy at least -20 kcal/mol is true (1), less is false (0).

These solved cases illustrate the format of a correct answer.
GAGAAAACGAAAGTTCTC (((..(((....)))))); true (1)
GGGAACGAAAGTTGTCCC ((((((....)))..))); true (1)
GCCTAACCGAAAGGTGGC (((..(((....)))))); false (0)
GATCCCGACGGGGATC ((((((....)))))); false (0)
GCTGGTGAAAACCAGC ((((((....)))))); false (0)

Query: Record GTTCGAGGAAACTCGAAC (((((((....))))))) ; criterion: folding enthalpy no lower than -20 kcal/mol. Met?
Response: false (0)

Query: Record GCGAGCGAAAGCTTCGC ((((((....))).))) ; criterion: folding enthalpy no lower than -20 kcal/mol. Met?
Response: false (0)

Query: Record AATGCGAAAGCATT (((((....))))) ; criterion: folding enthalpy no lower than -20 kcal/mol. Met?
Response: true (1)

Query: Record GGACCAGGAAACTGACCC ((..(((....)))..)) ; criterion: folding enthalpy no lower than -20 kcal/mol. Met?
Response: true (1)

Query: Record GATCTTGTCAAAGATC ((((((....)))))) ; criterion: folding enthalpy no lower than -20 kcal/mol. Met?
Response: false (0)
